MEASUREMENT NOTES: Substrate specificities of KAZ mutants (ZZ-fused, crude enzyme), h-CTZ
Assay type: biochemical
REPORTED CONDITIONS: 1 μg substrate, integrated for 60 seconds
Protocol: The coelenterazine analogues used for substrate specificity studies were synthesized by the methods described in publications. Specifically, bis-coelenterazine was synthesized by the method described in Nakamura et al. (1997) Tetrahedron Lett. 38: 6405-6406; furimazine by the method described in Hall et al. (2012) ACS Chem. Biol. […]; and, 6h-coelenterazine, f-coelenterazine and 6h-f-coelenterazine by the methods described in Inouye et al (2013) Biochem. Biophys. Res. Commun. 437: 23-28. […]
# Relative Luminescence Activity h-CTZ Int. per entry
Number only, please.

Here are 3 molecules together with their reported answers.
# Relative Luminescence Activity h-CTZ Int. of KAZ-V44I-Y138I: KAZ mutant with two amino acid substitutions V44I and Y138I, SEQ ID NO: 12 (protein) FTLADFVGDWQQTAGYNQDQVLEQGGLSSLFQALGVSVTPIQKIVLSGENGLKADIHVIIPYEGLSGFQMGLIEMIFKVVYPVDDHHFKIILHYGTLVIDGVTPNMIDYFGRPYPGIAVFDGKQITVTGTLWNGNKIIDERLINPDGSLLFRVTINGVTGWRLCENILA = 9.7

# Relative Luminescence Activity h-CTZ Int. of KAZ-A54I-Y138I: KAZ mutant with two amino acid substitutions A54I and Y138I, SEQ ID NO: 14 (protein) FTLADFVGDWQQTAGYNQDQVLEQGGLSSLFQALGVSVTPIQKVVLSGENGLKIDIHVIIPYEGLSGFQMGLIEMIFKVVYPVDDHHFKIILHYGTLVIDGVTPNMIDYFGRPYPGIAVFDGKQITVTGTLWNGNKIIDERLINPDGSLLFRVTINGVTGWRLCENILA = 12.9

# Relative Luminescence Activity h-CTZ Int. of KAZ-V44I-A54I-Y138I: KAZ mutant with three amino acid substitutions V44I, A54I and Y138I, SEQ ID NO: 16 (protein) FTLADFVGDWQQTAGYNQDQVLEQGGLSSLFQALGVSVTPIQKIVLSGENGLKIDIHVIIPYEGLSGFQMGLIEMIFKVVYPVDDHHFKIILHYGTLVIDGVTPNMIDYFGRPYPGIAVFDGKQITVTGTLWNGNKIIDERLINPDGSLLFRVTINGVTGWRLCENILA = 33.2

Others:
# Relative Luminescence Activity h-CTZ Int. of KAZ-V44I-A54I: KAZ mutant with two amino acid substitutions V44I and A54I, SEQ ID NO: 10 (protein) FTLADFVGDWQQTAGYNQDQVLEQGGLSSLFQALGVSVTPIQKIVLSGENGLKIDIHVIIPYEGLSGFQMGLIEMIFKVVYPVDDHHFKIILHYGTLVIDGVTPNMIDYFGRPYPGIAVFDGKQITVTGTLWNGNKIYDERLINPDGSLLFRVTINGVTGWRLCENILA = 8.7

# Relative Luminescence Activity h-CTZ Int. of KAZ: wild 19 kDa catalytic protein of Oplophorus luciferase (19kOLase), amino acid sequence SEQ ID NO: 2 (protein, listed as Oplophorus gracilirostris) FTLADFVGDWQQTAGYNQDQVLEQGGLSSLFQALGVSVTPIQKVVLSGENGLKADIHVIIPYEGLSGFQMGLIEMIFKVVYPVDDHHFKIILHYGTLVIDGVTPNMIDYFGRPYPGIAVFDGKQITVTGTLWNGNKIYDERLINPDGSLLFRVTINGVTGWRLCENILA = 0.7

Origin of values: patent US10907134B2
